assay.target: UniProt:P51448
Sequence (P51448 1-467 isoform P51448-2): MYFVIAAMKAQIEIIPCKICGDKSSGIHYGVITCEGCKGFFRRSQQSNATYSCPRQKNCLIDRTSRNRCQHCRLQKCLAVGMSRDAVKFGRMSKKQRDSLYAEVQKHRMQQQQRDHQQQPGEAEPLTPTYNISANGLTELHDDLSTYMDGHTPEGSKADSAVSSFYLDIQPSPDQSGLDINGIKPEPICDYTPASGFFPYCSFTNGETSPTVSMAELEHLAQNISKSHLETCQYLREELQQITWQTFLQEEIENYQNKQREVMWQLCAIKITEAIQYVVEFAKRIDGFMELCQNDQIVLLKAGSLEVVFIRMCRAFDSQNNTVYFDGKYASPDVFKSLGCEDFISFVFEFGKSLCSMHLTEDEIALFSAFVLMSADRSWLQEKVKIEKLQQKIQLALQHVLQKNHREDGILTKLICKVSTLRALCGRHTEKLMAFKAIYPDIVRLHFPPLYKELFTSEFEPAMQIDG
assay.protocol: CHO-K1 cell-based RORα reporter gene assay
stated.conditions: inverse agonistic activity; CHO-K1 cells, 24 hr
readout.label: RIC20 (20% relative inhibitory concentration), RORα assay (µM)
Just the number please, in µM, no unit attached.

Would you kindly share the measured RIC20 (20% relative inhibitory concentration), RORα assay for CCCCC(O)(Cn1cncn1)c1ccc(Cl)cc1Cl (stereo not shown) ?
21

Would you kindly repeat that for `Clc1ccc(CSC(Cn2cncn2)=Nc2ccc(Cl)cc2Cl)cc1` ?
10

---

Record form. Attribute: RIC20 (20% relative inhibitory concentration), RORγ assay. Fill in for each entry.
assay.target: mouse RORγ (Mus musculus, UniProt P51450)
Sequence (P51450 1-516): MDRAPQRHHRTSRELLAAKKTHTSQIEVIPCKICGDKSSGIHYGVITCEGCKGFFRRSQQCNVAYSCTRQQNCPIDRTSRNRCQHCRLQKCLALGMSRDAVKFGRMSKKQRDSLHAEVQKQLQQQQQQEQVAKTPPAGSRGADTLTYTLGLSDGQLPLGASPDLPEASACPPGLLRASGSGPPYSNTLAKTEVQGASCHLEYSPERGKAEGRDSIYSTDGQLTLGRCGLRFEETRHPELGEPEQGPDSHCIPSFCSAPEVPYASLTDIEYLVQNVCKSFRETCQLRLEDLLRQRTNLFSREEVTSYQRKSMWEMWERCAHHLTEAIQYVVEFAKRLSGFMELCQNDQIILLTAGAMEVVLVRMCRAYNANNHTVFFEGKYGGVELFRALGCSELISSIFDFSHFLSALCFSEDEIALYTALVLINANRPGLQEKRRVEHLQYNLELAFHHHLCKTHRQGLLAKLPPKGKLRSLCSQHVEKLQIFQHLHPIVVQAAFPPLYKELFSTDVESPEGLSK
assay.protocol: CHO-K1 cell-based RORγ reporter gene assay
stated.conditions: inverse agonistic activity; CHO-K1 cells, 24 hr
Numbers only here, please. The scale is µM.

Field: RIC20 (20% relative inhibitory concentration), RORγ assay (mouse RORγ (Mus musculus, UniProt P51450)). Entry: Clc1ccc(CSC(Cn2cncn2)=Nc2ccc(Cl)cc2Cl)cc1 [Imibenconazole]
3.3

Same for C=CCOC(Cn1ccnc1)c1ccc(Cl)cc1Cl (stereo not shown) [Imazalil]
29

Subsequent entry: FC(F)C(F)(F)OCC(Cn1cncn1)c1ccc(Cl)cc1Cl (stereo not shown) [Tetraconazole]
15

Okay, and CCCCC(O)(Cn1cncn1)c1ccc(Cl)cc1Cl (stereo not shown) [Hexaconazole] ?
3.2
